# studyConditions: in n-butanol, 288.15 K
measuredQuantity: solubility (mole fraction)
One number for each entry.

Problem: Record request: solubility (mole fraction) value, item `Nc1ccc(Cl)cc1[N+](=O)[O-]`
Solution: 0.0124

----------
# studyConditions: in NMP, 303.15 K
measuredQuantity: solubility (mole fraction)
Numbers only.

Problem: Record request: solubility (mole fraction) value, item `Nc1ccc(Cl)cc1[N+](=O)[O-]`
Solution: 0.125

----------
# studyConditions: in n-butanol, 308.15 K
measuredQuantity: solubility (mole fraction)
Give bare numbers.

Problem: Record request: solubility (mole fraction) value, item `Nc1ccc(Cl)cc1[N+](=O)[O-]`
Solution: 0.0257

----------
# studyConditions: in isopropanol, 298.15 K
measuredQuantity: solubility (mole fraction)
Give bare numbers.

Problem: Record request: solubility (mole fraction) value, item `Nc1ccc(Cl)cc1[N+](=O)[O-]`
Solution: 0.0208

----------
# studyConditions: in acetonitrile, 293.15 K
measuredQuantity: solubility (mole fraction)
Give bare numbers.

Problem: Record request: solubility (mole fraction) value, item `Nc1ccc(Cl)cc1[N+](=O)[O-]`
Solution: 0.053

----------
# studyConditions: in isopropanol, 308.15 K
measuredQuantity: solubility (mole fraction)
Give bare numbers.

Problem: Record request: solubility (mole fraction) value, item `Nc1ccc(Cl)cc1[N+](=O)[O-]`
Solution: 0.0296

----------
# studyConditions: in ethyl acetate, 303.15 K
measuredQuantity: solubility (mole fraction)

Problem: Record request: solubility (mole fraction) value, item `Nc1ccc(Cl)cc1[N+](=O)[O-]`
Solution: 0.0684

----------
# studyConditions: in ethanol, 298.15 K
measuredQuantity: solubility (mole fraction)
Give bare numbers.

Problem: Record request: solubility (mole fraction) value, item `Nc1ccc(Cl)cc1[N+](=O)[O-]`
Solution: 0.0232

----------
# studyConditions: in cyclohexane, 288.15 K
measuredQuantity: solubility (mole fraction)
Give bare numbers.

Problem: Record request: solubility (mole fraction) value, item `Nc1ccc(Cl)cc1[N+](=O)[O-]`
Solution: 0.000267

----------
# studyConditions: in isopropanol, 318.15 K
measuredQuantity: solubility (mole fraction)
Numbers only.

Problem: Record request: solubility (mole fraction) value, item `Nc1ccc(Cl)cc1[N+](=O)[O-]`
Solution: 0.0406

----------
# studyConditions: in 1,4-dioxane, 323.15 K
measuredQuantity: solubility (mole fraction)

Problem: Record request: solubility (mole fraction) value, item `Nc1ccc(Cl)cc1[N+](=O)[O-]`
Solution: 0.133

----------
# studyConditions: in acetonitrile, 308.15 K
measuredQuantity: solubility (mole fraction)
One number for each entry.

Problem: Record request: solubility (mole fraction) value, item `Nc1ccc(Cl)cc1[N+](=O)[O-]`
Solution: 0.09

----------
# studyConditions: in NMP, 288.15 K
measuredQuantity: solubility (mole fraction)
Answers are plain numbers.

Problem: Record request: solubility (mole fraction) value, item `Nc1ccc(Cl)cc1[N+](=O)[O-]`
Solution: 0.0737

----------
# studyConditions: in methanol, 278.15 K
measuredQuantity: solubility (mole fraction)
Answers are plain numbers.

Problem: Record request: solubility (mole fraction) value, item `Nc1ccc(Cl)cc1[N+](=O)[O-]`
Solution: 0.0158

----------
# studyConditions: in methanol, 303.15 K
measuredQuantity: solubility (mole fraction)
Give bare numbers.

Problem: Record request: solubility (mole fraction) value, item `Nc1ccc(Cl)cc1[N+](=O)[O-]`
Solution: 0.034

----------
# studyConditions: in water, 318.15 K
measuredQuantity: solubility (mole fraction)

Problem: Record request: solubility (mole fraction) value, item `Nc1ccc(Cl)cc1[N+](=O)[O-]`
Solution: 7e-05

----------
# studyConditions: in acetonitrile, 318.15 K
measuredQuantity: solubility (mole fraction)
Give bare numbers.

Problem: Record request: solubility (mole fraction) value, item `Nc1ccc(Cl)cc1[N+](=O)[O-]`
Solution: 0.124

----------
# studyConditions: in 1,4-dioxane, 308.15 K
measuredQuantity: solubility (mole fraction)
Answers are plain numbers.

Problem: Record request: solubility (mole fraction) value, item `Nc1ccc(Cl)cc1[N+](=O)[O-]`
Solution: 0.065

----------
# studyConditions: in 1,4-dioxane, 288.15 K
measuredQuantity: solubility (mole fraction)
Give bare numbers.

Problem: Record request: solubility (mole fraction) value, item `Nc1ccc(Cl)cc1[N+](=O)[O-]`
Solution: 0.0282

----------
# studyConditions: in ethyl acetate, 323.15 K
measuredQuantity: solubility (mole fraction)
Give bare numbers.

Problem: Record request: solubility (mole fraction) value, item `Nc1ccc(Cl)cc1[N+](=O)[O-]`
Solution: 0.177

----------
# studyConditions: in water, 288.15 K
measuredQuantity: solubility (mole fraction)
Numbers only.

Problem: Record request: solubility (mole fraction) value, item `Nc1ccc(Cl)cc1[N+](=O)[O-]`
Solution: 1.4e-05

----------
# studyConditions: in 1,4-dioxane, 318.15 K
measuredQuantity: solubility (mole fraction)

Problem: Record request: solubility (mole fraction) value, item `Nc1ccc(Cl)cc1[N+](=O)[O-]`
Solution: 0.105

----------
# studyConditions: in n-propanol, 308.15 K
measuredQuantity: solubility (mole fraction)
One number for each entry.

Problem: Record request: solubility (mole fraction) value, item `Nc1ccc(Cl)cc1[N+](=O)[O-]`
Solution: 0.0308

----------
# studyConditions: in ethylene glycol, 283.15 K
measuredQuantity: solubility (mole fraction)
Give bare numbers.

Problem: Record request: solubility (mole fraction) value, item `Nc1ccc(Cl)cc1[N+](=O)[O-]`
Solution: 0.00229

----------
# studyConditions: in n-butanol, 293.15 K
measuredQuantity: solubility (mole fraction)
Numbers only.

Problem: Record request: solubility (mole fraction) value, item `Nc1ccc(Cl)cc1[N+](=O)[O-]`
Solution: 0.0146

----------
# studyConditions: in ethyl acetate, 298.15 K
measuredQuantity: solubility (mole fraction)
Give bare numbers.

Problem: Record request: solubility (mole fraction) value, item `Nc1ccc(Cl)cc1[N+](=O)[O-]`
Solution: 0.0535

----------
# studyConditions: in water, 308.15 K
measuredQuantity: solubility (mole fraction)
Answers are plain numbers.

Problem: Record request: solubility (mole fraction) value, item `Nc1ccc(Cl)cc1[N+](=O)[O-]`
Solution: 4.3e-05

----------
# studyConditions: in n-propanol, 318.15 K
measuredQuantity: solubility (mole fraction)
Give bare numbers.

Problem: Record request: solubility (mole fraction) value, item `Nc1ccc(Cl)cc1[N+](=O)[O-]`
Solution: 0.042

----------
# studyConditions: in 1,4-dioxane, 293.15 K
measuredQuantity: solubility (mole fraction)
One number for each entry.

Problem: Record request: solubility (mole fraction) value, item `Nc1ccc(Cl)cc1[N+](=O)[O-]`
Solution: 0.0337

----------
# studyConditions: in water, 313.15 K
measuredQuantity: solubility (mole fraction)

Problem: Record request: solubility (mole fraction) value, item `Nc1ccc(Cl)cc1[N+](=O)[O-]`
Solution: 5.5e-05

----------
# studyConditions: in acetonitrile, 323.15 K
measuredQuantity: solubility (mole fraction)
Numbers only.

Problem: Record request: solubility (mole fraction) value, item `Nc1ccc(Cl)cc1[N+](=O)[O-]`
Solution: 0.145

----------
# studyConditions: in ethylene glycol, 288.15 K
measuredQuantity: solubility (mole fraction)
One number for each entry.

Problem: Record request: solubility (mole fraction) value, item `Nc1ccc(Cl)cc1[N+](=O)[O-]`
Solution: 0.00281

----------
# studyConditions: in cyclohexane, 278.15 K
measuredQuantity: solubility (mole fraction)
One number for each entry.

Problem: Record request: solubility (mole fraction) value, item `Nc1ccc(Cl)cc1[N+](=O)[O-]`
Solution: 0.000163

----------
# studyConditions: in ethanol, 303.15 K
measuredQuantity: solubility (mole fraction)

Problem: Record request: solubility (mole fraction) value, item `Nc1ccc(Cl)cc1[N+](=O)[O-]`
Solution: 0.0277

----------
# studyConditions: in ethylene glycol, 278.15 K
measuredQuantity: solubility (mole fraction)
Give bare numbers.

Problem: Record request: solubility (mole fraction) value, item `Nc1ccc(Cl)cc1[N+](=O)[O-]`
Solution: 0.00179

----------
# studyConditions: in water, 278.15 K
measuredQuantity: solubility (mole fraction)

Problem: Record request: solubility (mole fraction) value, item `Nc1ccc(Cl)cc1[N+](=O)[O-]`
Solution: 8e-06

----------
# studyConditions: in ethylene glycol, 318.15 K
measuredQuantity: solubility (mole fraction)
Give bare numbers.

Problem: Record request: solubility (mole fraction) value, item `Nc1ccc(Cl)cc1[N+](=O)[O-]`
Solution: 0.0118

----------
# studyConditions: in acetonitrile, 298.15 K
measuredQuantity: solubility (mole fraction)
Numbers only.

Problem: Record request: solubility (mole fraction) value, item `Nc1ccc(Cl)cc1[N+](=O)[O-]`
Solution: 0.0625

----------
# studyConditions: in NMP, 278.15 K
measuredQuantity: solubility (mole fraction)

Problem: Record request: solubility (mole fraction) value, item `Nc1ccc(Cl)cc1[N+](=O)[O-]`
Solution: 0.0539

----------
# studyConditions: in cyclohexane, 293.15 K
measuredQuantity: solubility (mole fraction)
Numbers only.

Problem: Record request: solubility (mole fraction) value, item `Nc1ccc(Cl)cc1[N+](=O)[O-]`
Solution: 0.000354

From: BigSolDB 2.1
